Tested on: Plasmodium falciparum
ASSAY_NOTES: GSK_TCMDC: Inhibition of Plasmodium falciparum 3D7 in whole red blood cells, using parasite LDH activity as an index of growth. Test compounds present at 2uM
Format: functional
Measured Inhibition accompanies every entry in the list below.
OBSERVATION_TYPE: Inhibition (%)

{"COMPOUND": "O=C(O)C(F)(F)F.OC1CCCN(Cc2ccc(-c3cccc(-c4nc5ccccc5[nH]4)c3)cc2)C1 (stereo not drawn)", "UNIT_TAG": "%", "ENDPOINT_RESULT": 86}
{"COMPOUND": "CC[C@H](C)CNC(=O)c1cccc(-c2cccc(CN3CCC(N4CCCC4)CC3)c2)n1.O=C(O)C(F)(F)F", "UNIT_TAG": "%", "ENDPOINT_RESULT": 100}
{"COMPOUND": "CCCNC(=O)C1Cc2c([nH]c3ccc(Br)cc23)C2(CCN(CCc3ccccc3)CC2)N1 (stereo not drawn)", "UNIT_TAG": "%", "ENDPOINT_RESULT": 99}
{"COMPOUND": "CC(C)CNCc1cccc(-c2ccccc2CNC2CCN(Cc3ccccc3)CC2)c1.O=C(O)C(F)(F)F", "UNIT_TAG": "%", "ENDPOINT_RESULT": 100}
{"COMPOUND": "FC(F)(F)c1ccc2[nH]c(-c3ccc(-c4cccc(CNCC5CCCO5)c4)cc3)nc2c1.O=C(O)C(F)(F)F (stereo not drawn)", "UNIT_TAG": "%", "ENDPOINT_RESULT": 100}
{"COMPOUND": "O=C(Nc1ccc(-c2cccc(-c3nc4cc(C(F)(F)F)ccc4[nH]3)c2)cc1)c1ccc(=O)[nH]n1", "UNIT_TAG": "%", "ENDPOINT_RESULT": 87}
{"COMPOUND": "O=C(Nc1cccc(F)c1)N(Cc1ccc(-c2ccc(CN3CCNCC3)cc2)cc1)C1CCN(Cc2ccccc2)CC1.O=C(O)C(F)(F)F", "UNIT_TAG": "%", "ENDPOINT_RESULT": 100}
{"COMPOUND": "COc1ccc(OC(C)CNC(=O)c2cc([N+](=O)[O-])ccc2-c2ccc(OC)cc2)cc1 (stereo not drawn)", "UNIT_TAG": "%", "ENDPOINT_RESULT": 92}

* * *

Measured Inhibition accompanies every entry in the list below.
Tested on: HepG2
ASSAY_NOTES: GSK_TCMDC: Percent inhibition of human HepG2 cell line. Test compounds present at 10uM.
Assay type: functional

{"COMPOUND": "CN(C)Cc1ccc(-c2cc3c(Nc4ccc(OCc5cccc(F)c5)c(Cl)c4)ncnc3s2)[nH]1", "Inhibition / %": 8}
{"COMPOUND": "O=C(c1cc(-c2ccccc2)n[nH]1)N1CCN(S(=O)(=O)c2ccc(Cl)s2)CC1", "Inhibition / %": 9}
{"COMPOUND": "CN(C)c1ccc(-c2ccc(C(=O)NC3CCN(Cc4ccc(C(C)(C)C)cc4)CC3)s2)cc1.O=C(O)C(F)(F)F", "Inhibition / %": 35}
{"COMPOUND": "Cc1ccc(NC(=O)c2ccc3ncccc3c2)cc1OC1CCN(C(C)C)C1.O=C(O)C(F)(F)F (centres undefined)", "Inhibition / %": 12}

* * *

Measured Inhibition accompanies every entry in the list below.
Test system: Plasmodium falciparum
ASSAY_NOTES: GSK_TCMDC: Inhibition of Plasmodium falciparum 3D7 in whole red blood cells, using parasite LDH activity as an index of growth. Test compounds present at 2uM
Type: functional

{"COMPOUND": "COc1cc2c(cc1C(F)(F)F)N(C(=O)Nc1cccc(-c3ccc(CN(C)C)cc3)c1)CC2", "UNIT_TAG": "%", "Inhibition": 100}
{"COMPOUND": "COc1cc(N)c(Cl)cc1C(=O)NC1CCC(NCC2CCCCC2)CC1.Cl (centres undefined)", "UNIT_TAG": "%", "Inhibition": 90}
{"COMPOUND": "COc1ccc2ncc(F)c(CCN3CCC(NCc4cc5c(cn4)OCCS5)CC3)c2c1.Cl", "UNIT_TAG": "%", "Inhibition": 89}
{"COMPOUND": "COCc1ccc(CN2CCC(C(=O)Nc3ccc(-c4nc5ccccc5[nH]4)cc3)CC2)o1", "UNIT_TAG": "%", "Inhibition": 97}
{"COMPOUND": "COCCN1CCC(CN(C)CC(C)(C)c2nc(-c3ccc(Cl)c(O)c3)c(-c3ccncc3)[nH]2)CC1.Cl", "UNIT_TAG": "%", "Inhibition": 94}
{"COMPOUND": "COc1ccc2c(c1)CC(NCc1ccc(-c3ccc4nc[nH]c4c3)cc1)C2.O=C(O)C(F)(F)F (centres undefined)", "UNIT_TAG": "%", "Inhibition": 100}
{"COMPOUND": "Cc1nc(Nc2ccc(F)cc2)nc(N2CCc3ccccc3C2C)c1CO (centres undefined)", "UNIT_TAG": "%", "Inhibition": 100}
{"COMPOUND": "Cc1cccc2nc(-c3cccc(-c4cccc(CNCc5cnn(-c6ccccc6)n5)c4)c3)[nH]c12.O=C(O)C(F)(F)F", "UNIT_TAG": "%", "Inhibition": 99}
{"COMPOUND": "Cc1ccccc1C1CCN(C2CCC(NC(=O)/C=C/c3ccc(C#N)cc3)CC2)CC1 (centres undefined)", "UNIT_TAG": "%", "Inhibition": 87}
